# assayed_system: IRE1α (Homo sapiens)
# Sequence (O75460 19-977): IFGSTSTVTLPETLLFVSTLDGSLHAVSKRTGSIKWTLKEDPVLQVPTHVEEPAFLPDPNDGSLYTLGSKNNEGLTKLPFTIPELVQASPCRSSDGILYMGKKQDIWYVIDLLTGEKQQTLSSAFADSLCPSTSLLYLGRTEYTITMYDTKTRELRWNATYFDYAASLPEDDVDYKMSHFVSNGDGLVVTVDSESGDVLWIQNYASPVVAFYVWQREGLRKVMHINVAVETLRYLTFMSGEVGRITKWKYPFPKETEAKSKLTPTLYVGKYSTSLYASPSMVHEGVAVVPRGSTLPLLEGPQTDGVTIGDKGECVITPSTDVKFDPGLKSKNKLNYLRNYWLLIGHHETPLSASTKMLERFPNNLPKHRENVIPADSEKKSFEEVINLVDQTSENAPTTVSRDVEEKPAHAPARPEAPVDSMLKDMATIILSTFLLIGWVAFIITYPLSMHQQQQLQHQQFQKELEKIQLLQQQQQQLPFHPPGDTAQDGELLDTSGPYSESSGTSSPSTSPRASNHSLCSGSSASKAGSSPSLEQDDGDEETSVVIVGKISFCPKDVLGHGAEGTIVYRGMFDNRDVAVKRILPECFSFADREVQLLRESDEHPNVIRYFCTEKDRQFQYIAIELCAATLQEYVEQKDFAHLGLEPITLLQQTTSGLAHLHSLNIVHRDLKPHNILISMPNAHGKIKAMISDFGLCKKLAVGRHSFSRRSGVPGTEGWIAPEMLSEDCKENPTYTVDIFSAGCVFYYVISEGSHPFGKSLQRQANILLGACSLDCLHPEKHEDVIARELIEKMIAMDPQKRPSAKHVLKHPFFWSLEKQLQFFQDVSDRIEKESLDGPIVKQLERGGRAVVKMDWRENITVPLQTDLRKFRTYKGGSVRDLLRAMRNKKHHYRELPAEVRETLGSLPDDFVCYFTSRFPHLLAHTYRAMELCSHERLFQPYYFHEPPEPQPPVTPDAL
# experiment_summary: In vitro FRET assay (XBP1 RNA probe cleavage by IRE1α)
# study_conditions: biochemical FRET assay, 2 nM IRE1α
pEC50: −log10 of the molar value.
outcome_measure: pEC50

>>> print(df.to_string())
                               smiles_entry        assayed_system  outcome_measure  result_value
0  O=C(Nc1ccc(CN2CCNCC2)c(C(F)(F)F)c1)Nc1ccc2oc(-c3cccnc3)nc2c1  IRE1α (Homo sapiens)            pEC50        < 4.00
1  Cn1nc(NC(=O)Nc2ccc(CN3CCCCC3)c(C(F)(F)F)c2)cc1-c1ccc2ccncc2c1  IRE1α (Homo sapiens)            pEC50        < 4.00
2  CN1CCN(Cc2ccc(C(=O)Nc3cc(-c4ccc5cc(N)ncc5c4)n(C)n3)c3ccccc23)CC1  IRE1α (Homo sapiens)            pEC50        < 4.00
3  CSc1ccccc1NC(=O)Nc1cc(-c2ccc3ccncc3c2)n(C)n1  IRE1α (Homo sapiens)            pEC50        < 4.00
4  CN1CCN(Cc2ccc(NC(=O)Nc3cc(-c4ccc(-c5ccc(N)nc5)cc4)[nH]n3)cc2C(F)(F)F)CC1  IRE1α (Homo sapiens)            pEC50  4.30 to 5.30
5  COc1ccccc1NC(=O)Nc1cc(-c2ccc3ccncc3c2)n(C)n1  IRE1α (Homo sapiens)            pEC50        < 4.00
6  CN1CCN(Cc2ccc(NC(=O)Nc3cc(-c4cccnc4)[nH]n3)cc2C(F)(F)F)CC1  IRE1α (Homo sapiens)            pEC50  4.30 to 5.30

----------
# assayed_system: IRE1α (Homo sapiens)
# experiment_summary: In vitro FRET assay (XBP1 RNA probe cleavage by IRE1α)
# study_conditions: biochemical FRET assay, 2 nM IRE1α
outcome_measure: EC50

>>> df
                                   compound  result_value
0  CN1CCC(=Cc2ccc(NC(=O)Nc3cc(-c4ccc5cc(N)ncc5c4)n(C)n3)cc2C(F)(F)F)CC1 [Compound 71]    5 to 50 µM
1  CN1CCN(Cc2ccc(NC(=O)Nc3nn(C)c4cc(-c5cnc(N)cn5)ccc34)cc2C(F)(F)F)CC1 [Compound 10]    5 to 50 µM
2  CN1CCN(Cc2ccc(NC(=O)Nc3cc(-c4cccc5nccnc45)n(C)n3)cc2C(F)(F)F)CC1 [Compound 6]      > 100 µM
3  Cc1nc(NC(=O)Nc2ccc(CN3CCN(C)CC3)c(C(F)(F)F)c2)[nH]c1-c1ccc2ccncc2c1 [Compound 46]        ≤ 5 µM
4  CN1CCN(Cc2ccc(Nc3c(Nc4cc(-c5ccc6ccncc6c5)n(C)n4)c(=O)c3=O)cc2)CC1 [Compound 74]        ≤ 5 µM
5  CN1CCN(Cc2ccc(NC(=O)Cc3cc(-c4ccc5nc(N)ncc5c4)n(C)n3)cc2C(F)(F)F)CC1 [Compound 33]    5 to 50 µM
6  Cn1nc(NC(=O)c2ccccc2)cc1-c1ccc2cc(N)ncc2c1 [Compound 67]      > 100 µM
7  O=C(C#Cc1ccccc1)Nc1ccc2oc(-c3cccnc3)nc2c1 [Compound 58]      > 100 µM
